systemName: CDK9 (Homo sapiens, UniProt P50750)
Construct: NCIH211 cells with endogenously tagged N-terminal CDK9-HiBit; endogenous in cells; host or cells: NCIH211 cells (endogenous CDK9 locus tagged with HiBit)
Sequence (P50750 whole entry): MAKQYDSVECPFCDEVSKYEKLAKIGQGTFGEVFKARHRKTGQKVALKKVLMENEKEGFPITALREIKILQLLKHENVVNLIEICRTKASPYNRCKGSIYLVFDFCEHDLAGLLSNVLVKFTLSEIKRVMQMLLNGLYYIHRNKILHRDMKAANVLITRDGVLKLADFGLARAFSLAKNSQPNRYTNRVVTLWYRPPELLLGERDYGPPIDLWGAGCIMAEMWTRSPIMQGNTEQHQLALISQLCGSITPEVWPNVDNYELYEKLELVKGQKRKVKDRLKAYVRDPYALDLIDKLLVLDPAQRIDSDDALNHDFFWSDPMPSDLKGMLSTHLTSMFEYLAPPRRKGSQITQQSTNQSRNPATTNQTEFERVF
Sequence (O60563 whole entry partner): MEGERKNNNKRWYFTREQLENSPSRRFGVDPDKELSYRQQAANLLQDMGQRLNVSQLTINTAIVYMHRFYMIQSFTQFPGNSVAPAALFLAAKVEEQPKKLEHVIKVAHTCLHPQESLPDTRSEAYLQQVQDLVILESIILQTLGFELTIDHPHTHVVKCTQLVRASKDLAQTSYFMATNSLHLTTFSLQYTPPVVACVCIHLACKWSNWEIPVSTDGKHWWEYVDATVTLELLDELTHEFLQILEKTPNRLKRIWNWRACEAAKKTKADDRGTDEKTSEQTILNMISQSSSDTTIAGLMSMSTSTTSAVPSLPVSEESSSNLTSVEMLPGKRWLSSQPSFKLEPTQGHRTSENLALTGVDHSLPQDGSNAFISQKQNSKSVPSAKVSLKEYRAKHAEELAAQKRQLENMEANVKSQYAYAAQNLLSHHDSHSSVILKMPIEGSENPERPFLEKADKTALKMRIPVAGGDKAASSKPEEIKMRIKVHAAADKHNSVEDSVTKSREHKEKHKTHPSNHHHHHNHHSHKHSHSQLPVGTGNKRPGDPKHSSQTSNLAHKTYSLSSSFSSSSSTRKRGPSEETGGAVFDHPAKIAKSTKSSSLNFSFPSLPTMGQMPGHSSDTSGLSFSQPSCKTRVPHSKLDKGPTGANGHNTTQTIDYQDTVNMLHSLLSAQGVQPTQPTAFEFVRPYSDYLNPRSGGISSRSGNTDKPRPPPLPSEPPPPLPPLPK
assay: CDK9 degradation by HiBit assay, NCIH211 cells
Type: cell-based
experimentalContext: NCIH211 cells with endogenously tagged N-terminal CDK9-HiBit, 24 hours incubation; read-out: HiBit-NCIH211.2 DC50
Please provide measured DC50 for the entries that follow.

For the compound shown here, CCC(CC)c1cc(N[C@H]2CC[C@H](NCC(=O)NCCCc3cn(CCOCCOCCOCCOCC(=O)N[C@H](C(=O)N4C[C@H](O)C[C@H]4C(=O)NCc4ccc(-c5scnc5C)cc4)C(C)(C)C)nn3)C2)n2ncc(Cl)c2n1 [Compound 41.0] , give the reported DC50. > 10 µM

For the compound shown here, CCC(CC)c1cc(N[C@H]2CC[C@H](NCc3cn(CCOCCOCCOCCOCC(=O)N[C@H](C(=O)N4C[C@H](O)C[C@H]4C(=O)NCc4ccc(-c5scnc5C)cc4)C(C)(C)C)nn3)C2)n2nccc2n1 [Compound 36.0] , give the reported DC50. > 10 µM

----------
systemName: CDK9 (Homo sapiens, UniProt P50750)
Construct: NCIH211 cells with endogenously tagged N-terminal CDK9-HiBit; endogenous in cells; host or cells: NCIH211 cells (endogenous CDK9 locus tagged with HiBit)
assay: CDK9 degradation by HiBit assay, NCIH211 cells
Type: cell-based
experimentalContext: NCIH211 cells with endogenously tagged N-terminal CDK9-HiBit, 24 hours incubation; read-out: HiBit-NCIH211.2 DC50
Method: Exemplary compounds of the invention were tested for degradation of CDK9. […] Data was normalized to positive (medium only) and negative (cells with no treatment) controls and curve fits were analyzed with CDK9 as % response vs. log [compound concentration] using a 4-parameter logistic model by GraphPad software. For Table 2: A is <100, B is <1000 C is <10,000, D is >10,000 and ND is Not Determined.
endpointLabel: DC50

For the compound shown here, CCC(CC)c1cc(N[C@H]2CC[C@H](NCC(=O)NCc3cn(CCOCCOc4cc(-c5scnc5C)ccc4CNC(=O)[C@@H]4C[C@@H](O)CN4C(=O)[C@H](C(C)C)N4Cc5ccccc5C4=O)nn3)C2)n2nccc2n1 , give the reported DC50. > 10 µM

For the compound shown here, CCC(CC)c1cc(N[C@H]2CC[C@H](NCCOCCOCCn3cc(CNc4cccc5c4C(=O)N(C4CCC(=O)NC4=O)C5=O)nn3)C2)n2ncc(Cl)c2n1 (stereo partly shown) , give the reported DC50. < 10 µM

For the compound shown here, CCC(CC)c1cc(N[C@H]2CC[C@H](NCC(=O)N3CCN(CCCCNc4cccc5c4C(=O)N(C4CCC(=O)NC4=O)C5=O)CC3)C2)n2ncc(Cl)c2n1 (stereo partly shown) , give the reported DC50. < 0.1 µM

For the compound shown here, CCC(CC)c1cc(N[C@H]2CC[C@H](NC(=O)COCCOCCOCCNC(=O)COc3cccc4c3C(=O)N(C3CCC(=O)NC3=O)C4=O)C2)n2ncc(Cl)c2n1 (stereo partly shown) , give the reported DC50. > 10 µM

For the compound shown here, CCC(CC)c1cc(N[C@H]2CC[C@H](NCC(=O)NCCOCCOCCOCCNc3cccc4c3C(=O)N(C3CCC(=O)NC3=O)C4=O)C2)n2ncc(Cl)c2n1 (stereo partly shown) , give the reported DC50. < 1 µM

For the compound shown here, CCC(CC)c1cc(N[C@H]2CC[C@H](NCC(=O)NCCCc3cn(CCOCCOCCOCC(=O)N[C@H](C(=O)N4C[C@H](O)C[C@H]4C(=O)NCc4ccc(-c5scnc5C)cc4)C(C)(C)C)nn3)C2)n2ncc(Cl)c2n1 , give the reported DC50. > 10 µM

For the compound shown here, CCC(CC)c1cc(N[C@H]2CC[C@H](NCC(=O)NCCCc3cn(CCOCCOCCOCCOCCOc4cc(-c5scnc5C)ccc4CNC(=O)[C@@H]4C[C@@H](O)CN4C(=O)[C@H](C(C)C)N4Cc5ccccc5C4=O)nn3)C2)n2ncc(Cl)c2n1 , give the reported DC50. < 10 µM

For the compound shown here, CCC(CC)c1cc(N[C@H]2CC[C@H](NCc3cn(CCOCCOc4cc(-c5scnc5C)ccc4CNC(=O)[C@@H]4C[C@@H](O)CN4C(=O)[C@H](C(C)C)N4Cc5ccccc5C4=O)nn3)C2)n2nccc2n1 , give the reported DC50. > 10 µM

For the compound shown here, C/C=C(\CC)c1cc(N[C@H]2CC[C@H](NCC(=O)N3CCN(CCCNc4cccc5c4C(=O)N(C4CCC(=O)NC4=O)C5=O)CC3)C2)n2ncc(Cl)c2n1 (stereo partly shown) , give the reported DC50. < 0.1 µM

For the compound shown here, C/C=C(\CC)c1cc(N[C@H]2CC[C@H](NCC(=O)N3CCN(CCCNc4cccc5c4C(=O)N(C4CCC(=O)NC4=O)C5=O)CC3)C2)n2nccc2n1 (stereo partly shown) , give the reported DC50. < 0.1 µM

----------
Please provide measured DC50 for the entries that follow.
systemName: CDK9 (Homo sapiens, UniProt P50750)
Construct: NCIH211 cells with endogenously tagged N-terminal CDK9-HiBit; endogenous in cells; host or cells: NCIH211 cells (endogenous CDK9 locus tagged with HiBit)
assay: CDK9 degradation by HiBit assay, NCIH1048 cells
Format: cell-based
experimentalContext: NCIH1048 cells with endogenously tagged N-terminal CDK9-HiBit, 24 hours incubation; read-out: HiBit-NCIH1048.3 DC50

For the compound shown here, CCC(CC)c1cc(N[C@H]2CC[C@H](NCC(=O)NCCOCCOCCOCCNc3cccc4c3C(=O)N(C3CCC(=O)NC3=O)C4=O)C2)n2ncc(Cl)c2n1 (stereo partly drawn) [Compound 6.0] , give the reported DC50. < 100 nM

For the compound shown here, CCC(CC)c1cc(N[C@H]2CC[C@H](NCC(=O)N3CCN(CCCCNc4cccc5c4C(=O)N(C4CCC(=O)NC4=O)C5=O)CC3)C2)n2nccc2n1 (stereo partly drawn) [Compound 46.0] , give the reported DC50. < 100 nM

For the compound shown here, CCC(CC)c1cc(N[C@H]2CC[C@H](NCC(=O)NCCCc3cn(CCOCCOCCOc4cc(-c5scnc5C)ccc4CNC(=O)[C@@H]4C[C@@H](O)CN4C(=O)[C@H](C(C)C)N4Cc5ccccc5C4=O)nn3)C2)n2ncc(Cl)c2n1 [Compound 51.0] , give the reported DC50. < 10000 nM

For the compound shown here, C/C=C(\CC)c1cc(N[C@H]2CC[C@H](NCC(=O)N3CCN(CCCNc4cccc5c4C(=O)N(C4CCC(=O)NC4=O)C5=O)CC3)C2)n2ncc(Cl)c2n1 (stereo partly drawn) [Compound 57.0] , give the reported DC50. < 100 nM

For the compound shown here, CCC(CC)c1cc(N[C@H]2CC[C@H](NCC(=O)N3CCN(CCCNc4cccc5c4C(=O)N(C4CCC(=O)NC4=O)C5=O)CC3)C2)n2ncc(Cl)c2n1 (stereo partly drawn) [Compound 50.0] , give the reported DC50. < 100 nM

For the compound shown here, C/C=C(\CC)c1cc(N[C@H]2CC[C@H](NCC(=O)N3CCN(CCCCNc4cccc5c4C(=O)N(C4CCC(=O)NC4=O)C5=O)CC3)C2)n2nccc2n1 (stereo partly drawn) [Compound 56.0] , give the reported DC50. < 100 nM

----------
Please provide measured DC50 for the entries that follow.
systemName: CDK9 (Homo sapiens)
Construct: NCIH211 cells with endogenously tagged N-terminal CDK9-HiBit; endogenous in cells; host or cells: NCIH211 cells (endogenous CDK9 locus tagged with HiBit)
assay: CDK9 degradation by HiBit assay, NCIH1048 cells
Format: cell-based
experimentalContext: NCIH1048 cells with endogenously tagged N-terminal CDK9-HiBit, 24 hours incubation; read-out: HiBit-NCIH1048.3 DC50

For the compound shown here, CCC(CC)c1cc(N[C@H]2CC[C@H](NCC(=O)NCCCc3cn(CCOCCOc4cc(-c5scnc5C)ccc4CNC(=O)[C@@H]4C[C@@H](O)CN4C(=O)[C@H](C(C)C)N4Cc5ccccc5C4=O)nn3)C2)n2ncc(Cl)c2n1 [Compound 52.0] , give the reported DC50. < 10000 nM

For the compound shown here, C/C=C(\CC)c1cc(N[C@H]2CC[C@H](NCC(=O)N3CCN(CCCCNc4cccc5c4C(=O)N(C4CCC(=O)NC4=O)C5=O)CC3)C2)n2ncc(Cl)c2n1 (some centres unmarked) [Compound 59.0] , give the reported DC50. < 100 nM

For the compound shown here, CCC(CC)c1cc(N[C@H]2CC[C@H](NCC(=O)NCCCc3cn(CCOCCOCCOCCOCCOc4cc(-c5scnc5C)ccc4CNC(=O)[C@@H]4C[C@@H](O)CN4C(=O)[C@H](C(C)C)N4Cc5ccccc5C4=O)nn3)C2)n2ncc(Cl)c2n1 [Compound 54.0] , give the reported DC50. < 10000 nM

For the compound shown here, C/C=C(\CC)c1cc(N[C@H]2CC[C@H](NCC(=O)N3CCN(CCNc4cccc5c4C(=O)N(C4CCC(=O)NC4=O)C5=O)CC3)C2)n2ncc(Cl)c2n1 (some centres unmarked) [Compound 58.0] , give the reported DC50. < 100 nM

For the compound shown here, CCC(CC)c1cc(N[C@H]2CC[C@H](NCC(=O)N3CCN(CCCCNc4cccc5c4C(=O)N(C4CCC(=O)NC4=O)C5=O)CC3)C2)n2ncc(Cl)c2n1 (some centres unmarked) [Compound 45.0] , give the reported DC50. < 100 nM
